FYI, the data here is from patent US20230002320A1.

// EC50 lookup, one value per entry
target or test system: UniProtKB Q86WV6
assay name: STING reporter assay (luciferase) in THP1-Dual KO-IFNAR2 cells activated with 2'3' cGAMP
applied conditions: 15 μM 2'3' cGAMP, 24 h

# annotated cases, reported EC50 shown
O=C(Nc1ccc(C(F)(F)F)cc1)Nc1c[nH]c2ccc(-c3ccc(OC(F)F)cc3)cc12 [Compound 218] : 200 to 1000 nM
CN(C)C(=O)c1ccc(-c2ccc3[nH]cc(NC(=O)Nc4ccc(C(F)(F)F)cc4)c3c2)c(F)c1 [Compound 215] : 200 to 1000 nM
CCn1cc(-c2ccc3[nH]cc(NC(=O)Nc4ccc(C(F)(F)F)cc4)c3c2)cn1 [Compound 237] : 40 to 200 nM

Next, consider the following molecule.
Task item: Query (molecule): O=C(Nc1ccc(C(F)(F)F)cc1)Nc1c[nH]c2ccc(-c3cncc(Cl)c3)cc12 [Compound 229] ; field requested: EC50
Reply: 200 to 1000 nM

---

target or test system: hSTING (Homo sapiens, UniProt Q86WV6)
Sequence (Q86WV6 whole entry R71H/G230A/H232R/R293Q, form open): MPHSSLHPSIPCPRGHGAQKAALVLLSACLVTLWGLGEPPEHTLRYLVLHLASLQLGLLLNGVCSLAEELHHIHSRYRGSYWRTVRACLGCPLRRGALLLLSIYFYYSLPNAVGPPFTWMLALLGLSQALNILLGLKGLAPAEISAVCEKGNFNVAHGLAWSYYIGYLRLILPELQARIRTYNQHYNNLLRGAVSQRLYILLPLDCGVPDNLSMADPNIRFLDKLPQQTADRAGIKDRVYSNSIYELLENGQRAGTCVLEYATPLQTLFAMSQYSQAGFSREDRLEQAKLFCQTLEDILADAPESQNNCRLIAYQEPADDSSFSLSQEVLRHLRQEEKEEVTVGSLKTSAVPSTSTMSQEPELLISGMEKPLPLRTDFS
assay name: STING reporter assay (luciferase) in THP1-Dual KO-IFNAR2 cells activated with 2'3' cGAMP
applied conditions: 15 μM 2'3' cGAMP, 24 h
pEC50: −log10 of the molar value.
readout type: pEC50

# annotated cases, reported pEC50 shown
COCCn1cc(-c2ccc3[nH]cc(NC(=O)Nc4ccc(C(F)(F)F)cc4)c3c2)cn1 : 6.00 to 6.70
CC(C)n1cc(-c2cc3c(NC(=O)Nc4ccc(C(F)(F)F)cc4)c[nH]c3cc2F)cn1 : 6.00 to 6.70
CC(C)n1cc(-c2ccc3[nH]cc(NC(=O)Nc4ccc(C(F)(F)F)cc4)c3c2)cn1 : 6.70 to 7.40
N#CCCn1cc(-c2ccc3[nH]cc(NC(=O)Nc4ccc(C(F)(F)F)cc4)c3c2)cn1 : 6.00 to 6.70
CC(C)(O)Cn1cc(-c2ccc3[nH]cc(NC(=O)Nc4ccc(C(F)(F)F)cc4)c3c2)cn1 : 6.00 to 6.70
CCCCCCc1ccc(-c2ccc3[nH]cc(NC(=O)Nc4ccc(C(F)(F)F)cc4)c3c2)cc1 : 6.00 to 6.70
CC(C)n1cc(-c2ccc3[nH]cc(NC(=O)Nc4ccc(C5CCCCC5)nc4)c3c2)cn1 : 6.00 to 6.70

Task item: Query (compound): O=C(Nc1ccc(C(F)(F)F)cc1)Nc1c[nH]c2ccc(-c3cccc4cccnc34)cc12 ; field requested: pEC50
Reply: 5.30 to 6.00

---

target or test system: hSTING (Homo sapiens, UniProt Q86WV6)
assay name: STING reporter assay (luciferase) in THP1-Dual KO-IFNAR2 cells activated with 2'3' cGAMP
applied conditions: 15 μM 2'3' cGAMP, 24 h
readout type: EC50

CN(C)C(=O)c1ccc(-c2ccc3[nH]cc(NC(=O)Nc4ccc(C(F)(F)F)cc4)c3c2)cc1 : 0.2 to 1 µM

Task item: Query (compound): O=C(Nc1ccc(C(F)(F)F)cc1)Nc1c[nH]c2ccc(-c3cccnc3)cc12 ; field requested: EC50
Reply: 0.2 to 1 µM

Task item: Query (compound): COCc1cncc(-c2ccc3[nH]cc(NC(=O)Nc4ccc(C(F)(F)F)cc4)c3c2)c1 ; field requested: EC50
Reply: 0.2 to 1 µM

Task item: Query (compound): CC(C)(C#N)c1ccc(-c2ccc3[nH]cc(NC(=O)Nc4ccc(C(F)(F)F)cc4)c3c2)cc1 ; field requested: EC50
Reply: 5 to 100 µM

Task item: Query (compound): Cn1ccc(-c2ccc3[nH]cc(NC(=O)Nc4ccc(C(F)(F)F)cc4)c3c2)n1 ; field requested: EC50
Reply: 1 to 5 µM

Task item: Query (compound): CCCc1ccc(-c2ccc3[nH]cc(NC(=O)Nc4ccc(C(F)(F)F)cc4)c3c2)cc1 ; field requested: EC50
Reply: 1 to 5 µM

Task item: Query (compound): O=C(Nc1ccc(C(F)(F)F)cc1)Nc1c[nH]c2ccc(-c3ccccc3)cc12 ; field requested: EC50
Reply: 0.2 to 1 µM

Task item: Query (compound): CC(C)(C)Oc1ccc(-c2ccc3[nH]cc(NC(=O)Nc4ccc(C(F)(F)F)cc4)c3c2)cc1 ; field requested: EC50
Reply: 0.2 to 1 µM

Task item: Query (compound): N#Cc1csc(-c2ccc3[nH]cc(NC(=O)Nc4ccc(C(F)(F)F)cc4)c3c2)c1 ; field requested: EC50
Reply: 0.04 to 0.2 µM

Task item: Query (compound): O=C(Nc1ccc(C(F)(F)F)cc1)Nc1c[nH]c2ccc(-c3cnn(-c4ccccc4)c3)cc12 ; field requested: EC50
Reply: 0.04 to 0.2 µM

Task item: Query (compound): O=C(Nc1ccc(C(F)(F)F)cc1)Nc1c[nH]c2ccc(-c3ccc(F)c(F)c3)cc12 ; field requested: EC50
Reply: 1 to 5 µM
